Test system: HCT-116 colon
ASSAY_PROTOCOL: NCI-60 one-dose screen, 48 h
EXPERIMENTAL_CONTEXT: 10 µM unless noted
The panel holds about 83,000 compounds, 20% with a hit somewhere; the sample as a whole holds those more often. Activity calls are given as the source filed them. How the source made its calls: active means growth percent below 10; inactive means the rest.
Outcome field: choose from yes (active), no (inactive)

Called result for "CO[C@@H]1[C@H](N(C)C(=O)c2ccccc2)C[C@@H]2O[C@]1(C)n1c3ccccc3c3c4c(c5c6ccccc6n2c5c31)C(=O)NC4=O"
no

Called result for CC(=O)N1N=C(c2cccc(Nc3ccncc3)c2)CC1c1ccc2c(c1)OCO2 (stereo not given)
yes

Called result for CCC(C)N(CCNc1cc(OC)cc2cccnc12)CCC(C)C (stereo not given)
no

Called result for "O=C(Nc1cccc(Cl)c1)c1cc(Cl)ccc1O"
yes

Called result for "O=C1NC(=S)NC(=O)C1=Cc1cn(Cc2ccccn2)c2ccccc12"
yes

Called result for N#CC1=C(N)Oc2c(ccc3ccccc23)C1c1ccc([N+](=O)[O-])cc1 (stereo not given)
no

Called result for "CN1CCN(c2ccc3nc(-c4cc(C(C)(C)C)c(O)c(C(C)(C)C)c4)[nH]c3c2)CC1"
no

Called result for "C[C@@H]1CN(Cc2ccc(/C=C/c3n[nH]c4ccc5nc(-c6cn[nH]c6C(F)(F)F)c6c(c5c34)CCCC6)cc2)C[C@H](C)O1"
yes

Called result for "S=c1[nH]cccc1-c1nnc2n1Nc1nc3ccc(Cl)cc3cc1CS2"
no

Called result for "CCOC(=O)N1CCc2c(sc3nc4nc[nH]n4c(=O)c23)C1"
no

* * *

System: UO-31 renal
ASSAY_PROTOCOL: NCI-60 one-dose screen, 48 h (100 = growth as untreated, 0 = no growth, -100 = all killed)
EXPERIMENTAL_CONTEXT: 10 µM unless noted
Protocol: Growth inhibition of the UO-31 human tumor cell line is measured as a screen for anti-cancer activity. Cells are grown in 96 well plates and exposed to the test compound for 48 hours. Compounds are tested at a single concentration, which is 10^-5 M for most compounds. The reported endpoint is percent growth (GI% or GIPRCNT), where numbers from 0 - 100% represent growth inhibition, and numbers from -100% - 0 represent cell death. For example, a value of 40 represents 60% growth inhibition. […]
Compounds without any hit were thinned out: in the full panel of roughly 83,000, 20% have a hit.
growth below 60% gives false (0); growth at or above it gives true (1).

Reported growth reaches at least 60% for C/C(=C(/c1ccccc1)c1ccc(OCC(O)CN2CCOCC2)cc1)c1ccccc1 (centres undefined) ?
true (1)

Reported growth reaches at least 60% for "CC(C)(C)OC(=O)N1CCN(c2ccc(N)cc2)C(=O)C1" ?
true (1)

Reported growth reaches at least 60% for "COc1ccc(Nn2c(SCC(=O)Nc3nc(-c4ccc(Cl)cc4)cs3)nc(C)c2C)cc1" ?
false (0)

Reported growth reaches at least 60% for COc1ccc(C2CC(c3cccc(Nc4ccncc4)c3)=NN2c2ccccc2)cc1 (centres undefined) ?
true (1)

Reported growth reaches at least 60% for CCC1(CC)NC(=O)c2c(c3ccc(Cl)c(Cl)c3n2C)C1C#N (centres undefined) ?
true (1)

Reported growth reaches at least 60% for "O=C(N/N=C/c1cccc(O)c1)c1ccccc1Nc1cccc(C(F)(F)F)c1" ?
false (0)

Reported growth reaches at least 60% for "Cc1ccc2nc3c(cc2c1)CSc1nnc(-c2ccc[nH]c2=S)n1N3" ?
true (1)

Reported growth reaches at least 60% for "CN1CCN(CC#CCNC(=O)[C@]23CCC(C)(C)C[C@H]2C2=CC[C@@H]4[C@@]5(C)Cc6c([nH]c7ccccc67)C(C)(C)[C@@H]5CC[C@@]4(C)[C@]2(C)CC3)CC1" ?
true (1)
